Value source: ChEMBL document CHEMBL1131316

pKi: −log10 of the molar value. Positions of bridges follow the written chain, without caps; N, C: chain ends. Non-standard residues stand in square brackets, D forms with d. Residues, ends and D or L forms follow the SMILES beside them. dBip = N[C@H](Cc1ccc(-c2ccccc2)cc1)C(=O)O; dPhe(4-Cl) = N[C@H](Cc1ccc(Cl)cc1)C(=O)O; 2Nal = N[C@@H](Cc1ccc2ccccc2c1)C(=O)O; d2Nal = N[C@H](Cc1ccc2ccccc2c1)C(=O)O; 3Pal = N[C@@H](Cc1cccnc1)C(=O)O
pKi, Somatostatin receptor type 5 (Homo sapiens), per-entry values.
quantity name: pKi

compound	quantity name	reading
CC(C)[C@@H]1NC(=O)[C@H](CCCCN)NC(=O)[C@@H](Cc2c[nH]c3ccccc23)NC(=O)[C@H](Cc2ccc(O)cc2)NC(=O)[C@H](NC(=O)[C@H](N)Cc2ccc(-c3ccccc3)cc2)CSSC[C@@H](C(=O)N[C@@H](Cc2ccc3ccccc3c2)C(N)=O)NC1=O (H-[dBip][dC]Y[dW]KVC[2Nal]-NH2; disulfide 2-7)	pKi	6.61
CC(C)[C@@H]1NC(=O)[C@H](CCCCN)NC(=O)[C@@H](Cc2c[nH]c3ccccc23)NC(=O)[C@H](Cc2cccnc2)NC(=O)[C@H](NC(=O)[C@@H](N)Cc2ccccc2)CSSC[C@@H](C(=O)N[C@@H](Cc2ccc3ccccc3c2)C(N)=O)NC1=O (H-F[dC][3Pal][dW]KVC[2Nal]-NH2; disulfide 2-7)	pKi	6.11
CC(C)[C@@H]1NC(=O)[C@H](CCCCN)NC(=O)[C@@H](Cc2c[nH]c3ccccc23)NC(=O)[C@H](Cc2cccnc2)NC(=O)[C@H](NC(=O)[C@@H](N)Cc2ccc3ccccc3c2)CSSC[C@@H](C(=O)N[C@@H](Cc2ccc3ccccc3c2)C(N)=O)NC1=O (H-[2Nal][dC][3Pal][dW]KVC[2Nal]-NH2; disulfide 2-7)	pKi	6.28
CC(C)[C@H](NC(=O)[C@H](CCCCN)NC(=O)[C@@H](Cc1c[nH]c2ccccc12)NC(=O)[C@H](Cc1ccc(O)cc1)NC(=O)[C@@H](Cc1ccc(Cl)cc1)NC(=O)[C@H](N)Cc1ccc2ccccc2c1)C(=O)N[C@@H](Cc1ccccc1)C(=O)N[C@H](C(N)=O)[C@@H](C)O (H-[d2Nal][dPhe(4-Cl)]Y[dW]KVFT-NH2)	pKi	7.67

[P] CC(C)[C@H](NC(=O)[C@H](CCCCN)NC(=O)[C@@H](Cc1c[nH]c2ccccc12)NC(=O)[C@H](Cc1ccc(O)cc1)NC(=O)[C@@H](Cc1ccc(Cl)cc1)NC(=O)[C@@H](N)Cc1ccccc1)C(=O)N[C@@H](Cc1ccccc1)C(=O)N[C@H](C(N)=O)[C@@H](C)O
[Q] C[C@@H](O)[C@@H]1NC(=O)[C@H](CCCCN)NC(=O)[C@@H](Cc2c[nH]c3ccccc23)NC(=O)[C@H](Cc2ccccc2)NC(=O)[C@H](Cc2ccccc2)NC(=O)[C@H](N)CSSC[C@H](C(N)=O)NC(=O)[C@H](Cc2ccccc2)NC1=O
Please compare: P and Q . Report which one has the smaller pKi value. In your reply, give the label of the chosen option.
P
(P: 5.56, Q: 7.55)

###

pIC50: −log10 of the molar value. Positions of bridges follow the written chain, without caps; N, C: chain ends. Non-standard residues stand in square brackets, D forms with d. Residues, ends and D or L forms follow the SMILES beside them. Phe(4-NO2) = N[C@@H](Cc1ccc([N+](=O)[O-])cc1)C(=O)O; dDip = N[C@@H](C(=O)O)C(c1ccccc1)c1ccccc1; 2Nal = N[C@@H](Cc1ccc2ccccc2c1)C(=O)O; 3Pal = N[C@@H](Cc1cccnc1)C(=O)O
Assay system Somatostatin receptor type 4 (Homo sapiens, UniProt P31391); read-out recorded as pIC50.
quantity name: pIC50

molecule	reading
CC(C)[C@@H]1NC(=O)[C@H](CCCCN)NC(=O)[C@@H](Cc2c[nH]c3ccccc23)NC(=O)[C@H](Cc2ccc(O)cc2)NC(=O)[C@H](NC(=O)[C@@H](N)Cc2ccc3ccccc3c2)CSSC[C@@H](C(=O)N[C@@H](Cc2ccc3ccccc3c2)C(N)=O)NC1=O	6.00
CC(C)[C@@H]1NC(=O)[C@H](CCCCN)NC(=O)[C@@H](Cc2c[nH]c3ccccc23)NC(=O)[C@H](Cc2cccnc2)NC(=O)[C@H](NC(=O)[C@@H](N)Cc2ccc([N+](=O)[O-])cc2)CSSC[C@@H](C(=O)N[C@@H](Cc2ccc(O)cc2)C(N)=O)NC1=O (H-[Phe(4-NO2)][dC][3Pal][dW]KVCY-NH2; disulfide 2-7)	6.12
CC(=O)N[C@@H]1CSSC[C@@H](C(=O)N[C@H](C(N)=O)[C@@H](C)O)NC(=O)[C@H](C(C)C)NC(=O)[C@H](CCCCN)NC(=O)[C@@H](Cc2c[nH]c3ccccc23)NC(=O)[C@H](Cc2ccc(O)cc2)NC1=O	6.00
CC(C)[C@@H]1NC(=O)[C@H](CCCCN)NC(=O)[C@@H](Cc2c[nH]c3ccccc23)NC(=O)[C@H](Cc2c[nH]cn2)NC(=O)[C@H](NC(=O)[C@@H](N)Cc2ccc3ccccc3c2)CSSC[C@@H](C(=O)N[C@@H](C(N)=O)C(c2ccccc2)c2ccccc2)NC1=O (H-[2Nal][dC]H[dW]KVC[dDip]-NH2; disulfide 2-7)	6.00

###

The following compounds are listed with their measured IC50 values.
tested on: Somatostatin receptor type 1 (Homo sapiens)
Sequence (P30872 whole entry): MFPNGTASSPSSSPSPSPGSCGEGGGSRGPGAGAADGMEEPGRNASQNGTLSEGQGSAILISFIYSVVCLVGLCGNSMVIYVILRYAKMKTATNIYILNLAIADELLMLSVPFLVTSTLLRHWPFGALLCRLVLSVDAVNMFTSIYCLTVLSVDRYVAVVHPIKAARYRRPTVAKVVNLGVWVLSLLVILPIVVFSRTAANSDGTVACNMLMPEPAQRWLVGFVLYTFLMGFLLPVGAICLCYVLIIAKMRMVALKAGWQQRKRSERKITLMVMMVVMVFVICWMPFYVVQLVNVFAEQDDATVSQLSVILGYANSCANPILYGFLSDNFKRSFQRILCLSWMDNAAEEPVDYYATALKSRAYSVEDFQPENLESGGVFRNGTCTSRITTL
test details: Binding affinity towards cloned human somatostatin 1 (hsst) receptor
Positions of bridges follow the written chain, without caps; N, C: chain ends. Non-standard residues stand in square brackets, D forms with d. Residues, ends and D or L forms follow the SMILES beside them. Phe(4-NO2) = N[C@@H](Cc1ccc([N+](=O)[O-])cc1)C(=O)O; dPhe(4-Cl) = N[C@H](Cc1ccc(Cl)cc1)C(=O)O; 2Nal = N[C@@H](Cc1ccc2ccccc2c1)C(=O)O; d2Nal = N[C@H](Cc1ccc2ccccc2c1)C(=O)O; 3Pal = N[C@@H](Cc1cccnc1)C(=O)O
Entry rule: numbers only, all in nM.

compound	value units	IC50
CC(C)[C@H](NC(=O)[C@H](CCCCN)NC(=O)[C@@H](Cc1c[nH]c2ccccc12)NC(=O)[C@H](Cc1ccc(O)cc1)NC(=O)[C@@H](Cc1ccc(Cl)cc1)NC(=O)[C@@H](N)Cc1ccc2ccccc2c1)C(=O)N[C@@H](Cc1ccccc1)C(=O)N[C@H](C(N)=O)[C@@H](C)O (H-[2Nal][dPhe(4-Cl)]Y[dW]KVFT-NH2)	nM	1000
CC(C)[C@@H]1NC(=O)[C@H](CCCCN)NC(=O)[C@@H](Cc2c[nH]c3ccccc23)NC(=O)[C@H](Cc2ccc(O)cc2)NC(=O)[C@H](NC(=O)[C@@H](N)Cc2c[nH]c3ccccc23)CSSC[C@@H](C(=O)N[C@H](Cc2ccc3ccccc3c2)C(N)=O)NC1=O (H-W[dC]Y[dW]KVC[d2Nal]-NH2; disulfide 2-7)	nM	588
CC(C)[C@@H]1NC(=O)[C@H](CCCCN)NC(=O)[C@@H](Cc2c[nH]c3ccccc23)NC(=O)[C@H](Cc2cccnc2)NC(=O)[C@H](NC(=O)[C@@H](N)Cc2ccc([N+](=O)[O-])cc2)CSSC[C@@H](C(=O)N[C@@H](Cc2ccc(O)cc2)C(N)=O)NC1=O (H-[Phe(4-NO2)][dC][3Pal][dW]KVCY-NH2; disulfide 2-7)	nM	245
CC(C)[C@H](NC(=O)[C@H](CCCCN)NC(=O)[C@@H](Cc1c[nH]c2ccccc12)NC(=O)[C@H](Cc1ccc(O)cc1)NC(=O)[C@@H](Cc1ccc(Cl)cc1)NC(=O)[C@@H](N)Cc1ccc2ccccc2c1)C(=O)N[C@@H](Cc1ccccc1)C(=O)N[C@@H](Cc1ccc2ccccc2c1)C(N)=O	nM	1000
CC(=O)N[C@@H](Cc1ccc2ccccc2c1)C(=O)N[C@@H]1CSSC[C@@H](C(=O)N[C@@H](Cc2ccc3ccccc3c2)C(N)=O)NC(=O)[C@H](C(C)C)NC(=O)[C@H](CCCCN)NC(=O)[C@@H](Cc2c[nH]c3ccccc23)NC(=O)[C@H](Cc2ccc(O)cc2)NC1=O (Ac-[2Nal][dC]Y[dW]KVC[2Nal]-NH2; disulfide 2-7)	nM	1020

# IC50 (compound: CC(C)[C@@H]1NC(=O)[C@H](CCCCN)NC(=O)[C@@H](Cc2c[nH]c3ccccc23)NC(=O)[C@H](Cc2cccnc2)NC(=O)[C@H](NC(=O)[C@@H](N)Cc2ccccc2)CSSC[C@@H](C(=O)N[C@@H](Cc2ccc3ccccc3c2)C(N)=O)NC1=O (H-F[dC][3Pal][dW]KVC[2Nal]-NH2; disulfide 2-7) ) is 535

###

Reported pKi for target or system Somatostatin receptor type 2 (Homo sapiens, UniProt P30874), by entry.
Positions of bridges follow the written chain, without caps; N, C: chain ends. Non-standard residues stand in square brackets, D forms with d. Residues, ends and D or L forms follow the SMILES beside them. Phe(4-NO2) = N[C@@H](Cc1ccc([N+](=O)[O-])cc1)C(=O)O; dPhe(4-Cl) = N[C@H](Cc1ccc(Cl)cc1)C(=O)O; Dip = N[C@H](C(=O)O)C(c1ccccc1)c1ccccc1; 2Nal = N[C@@H](Cc1ccc2ccccc2c1)C(=O)O; 3Pal = N[C@@H](Cc1cccnc1)C(=O)O
Just so you know, pKi here is -log10 of the concentration in molar units; reply with that number alone.

Examples with answers:
compound	reading
C[C@@H](O)[C@H](NC(=O)[C@H](Cc1ccccc1)NC(=O)[C@@H](NC(=O)[C@H](CCCCN)NC(=O)[C@@H](Cc1c[nH]c2ccccc12)NC(=O)[C@H](Cc1ccc(O)cc1)NC(=O)[C@@H](Cc1ccccc1)NC(=O)[C@@H](N)Cc1ccccc1)[C@@H](C)O)C(N)=O	6.35
CC(C)[C@H](NC(=O)[C@H](CCCCN)NC(=O)[C@@H](Cc1c[nH]c2ccccc12)NC(=O)[C@H](Cc1ccc(O)cc1)NC(=O)[C@@H](Cc1ccc(Cl)cc1)NC(=O)[C@@H](N)Cc1ccc2ccccc2c1)C(=O)N[C@@H](Cc1ccccc1)C(=O)N[C@@H](Cc1ccc2ccccc2c1)C(N)=O	6.00
CC(C)[C@@H]1NC(=O)[C@H](CCCCN)NC(=O)[C@@H](Cc2c[nH]c3ccccc23)NC(=O)[C@H](Cc2ccc(O)cc2)NC(=O)[C@H](NC(=O)[C@@H](N)Cc2ccc([N+](=O)[O-])cc2)CSSC[C@@H](C(=O)N[C@@H](Cc2ccc(O)cc2)C(N)=O)NC1=O (H-[Phe(4-NO2)][dC]Y[dW]KVCY-NH2; disulfide 2-7)	7.63
CC(C)[C@@H]1NC(=O)[C@H](CCCCN)NC(=O)[C@@H](Cc2c[nH]c3ccccc23)NC(=O)[C@H](Cc2cccnc2)NC(=O)[C@H](NC(=O)[C@@H](N)Cc2ccccc2)CSSC[C@@H](C(=O)N[C@@H](Cc2ccc3ccccc3c2)C(N)=O)NC1=O (H-F[dC][3Pal][dW]KVC[2Nal]-NH2; disulfide 2-7)	6.91
CC(C)[C@@H]1NC(=O)[C@H](CCCCN)NC(=O)[C@@H](Cc2c[nH]c3ccccc23)NC(=O)[C@H](Cc2ccc(O)cc2)NC(=O)[C@H](NC(=O)[C@@H](N)Cc2ccc3ccccc3c2)CSSC[C@@H](C(=O)N[C@H](C(N)=O)[C@@H](C)O)NC1=O	6.93
CC(C)[C@@H]1NC(=O)[C@H](CCCCN)NC(=O)[C@@H](Cc2c[nH]c3ccccc23)NC(=O)[C@H](Cc2cccnc2)NC(=O)[C@H](NC(=O)[C@@H](N)Cc2ccc3ccccc3c2)CSSC[C@@H](C(=O)N[C@H](C(N)=O)C(c2ccccc2)c2ccccc2)NC1=O (H-[2Nal][dC][3Pal][dW]KVC[Dip]-NH2; disulfide 2-7)	6.45

Simply: CC(C)[C@H](NC(=O)[C@H](CCCCN)NC(=O)[C@@H](Cc1c[nH]c2ccccc12)NC(=O)[C@H](Cc1ccc(O)cc1)NC(=O)[C@@H](Cc1ccc(Cl)cc1)NC(=O)[C@@H](N)Cc1ccc2ccccc2c1)C(=O)N[C@@H](Cc1ccccc1)C(=O)N[C@H](C(N)=O)[C@@H](C)O (H-[2Nal][dPhe(4-Cl)]Y[dW]KVFT-NH2) , Somatostatin receptor type 2 (Homo sapiens, UniProt P30874), pKi = 6.15
